molecular target: SARS CoV-2 M^pro (Severe acute respiratory syndrome coronavirus 2, UniProt P0DTD1); format: cell-based
assay readout: result in FlipGFP assay (in words)

INSERT INTO results (structure_string, assay_system, measurement) VALUES
  ('Cc1c(O)cccc1C(=O)N[C@@H](CSc1ccccc1)[C@H](O)CN1C[C@H]2CCCC[C@H]2C[C@H]1C(=O)NC(C)(C)C', 'SARS CoV-2 M^pro (Severe acute respiratory syndrome coronavirus 2, UniProt P0DTD1)', 'not conclusive'),
  ('O=c1c2ccccc2[se]n1-c1ccccc1', 'SARS CoV-2 M^pro (Severe acute respiratory syndrome coronavirus 2, UniProt P0DTD1)', 'no inhibition'),
  ('O=c1cc(-c2ccccc2)oc2cc(O)c(O)c(O)c12', 'SARS CoV-2 M^pro (Severe acute respiratory syndrome coronavirus 2, UniProt P0DTD1)', 'no inhibition'),
  ('Cc1cccc(C)c1OCC(=O)N[C@@H](Cc1ccccc1)[C@@H](O)C[C@H](Cc1ccccc1)NC(=O)[C@H](C(C)C)N1CCCNC1=O', 'SARS CoV-2 M^pro (Severe acute respiratory syndrome coronavirus 2, UniProt P0DTD1)', 'not conclusive'),
  ('CCN(CC)C(=S)SSC(=S)N(CC)CC', 'SARS CoV-2 M^pro (Severe acute respiratory syndrome coronavirus 2, UniProt P0DTD1)', 'no inhibition'),
  ('COC(=O)N[C@H](C(=O)N[C@@H](Cc1ccccc1)[C@@H](O)CN(Cc1ccc(-c2ccccn2)cc1)NC(=O)[C@@H](NC(=O)OC)C(C)(C)C)C(C)(C)C', 'SARS CoV-2 M^pro (Severe acute respiratory syndrome coronavirus 2, UniProt P0DTD1)', 'not conclusive');
